Emax values, listed per item
- test-target: F508delCFTR (Homo sapiens, UniProt P13569, DEL508-508)
- Construct: expressed in transfected cells; host or cells: CFBE41o- human lung derived epithelial cells (CFBE41o-F508delCFTR-HRP), doxycycline-inducible
- Sequence (P13569 with tags, fused parts or gaps DEL508-508): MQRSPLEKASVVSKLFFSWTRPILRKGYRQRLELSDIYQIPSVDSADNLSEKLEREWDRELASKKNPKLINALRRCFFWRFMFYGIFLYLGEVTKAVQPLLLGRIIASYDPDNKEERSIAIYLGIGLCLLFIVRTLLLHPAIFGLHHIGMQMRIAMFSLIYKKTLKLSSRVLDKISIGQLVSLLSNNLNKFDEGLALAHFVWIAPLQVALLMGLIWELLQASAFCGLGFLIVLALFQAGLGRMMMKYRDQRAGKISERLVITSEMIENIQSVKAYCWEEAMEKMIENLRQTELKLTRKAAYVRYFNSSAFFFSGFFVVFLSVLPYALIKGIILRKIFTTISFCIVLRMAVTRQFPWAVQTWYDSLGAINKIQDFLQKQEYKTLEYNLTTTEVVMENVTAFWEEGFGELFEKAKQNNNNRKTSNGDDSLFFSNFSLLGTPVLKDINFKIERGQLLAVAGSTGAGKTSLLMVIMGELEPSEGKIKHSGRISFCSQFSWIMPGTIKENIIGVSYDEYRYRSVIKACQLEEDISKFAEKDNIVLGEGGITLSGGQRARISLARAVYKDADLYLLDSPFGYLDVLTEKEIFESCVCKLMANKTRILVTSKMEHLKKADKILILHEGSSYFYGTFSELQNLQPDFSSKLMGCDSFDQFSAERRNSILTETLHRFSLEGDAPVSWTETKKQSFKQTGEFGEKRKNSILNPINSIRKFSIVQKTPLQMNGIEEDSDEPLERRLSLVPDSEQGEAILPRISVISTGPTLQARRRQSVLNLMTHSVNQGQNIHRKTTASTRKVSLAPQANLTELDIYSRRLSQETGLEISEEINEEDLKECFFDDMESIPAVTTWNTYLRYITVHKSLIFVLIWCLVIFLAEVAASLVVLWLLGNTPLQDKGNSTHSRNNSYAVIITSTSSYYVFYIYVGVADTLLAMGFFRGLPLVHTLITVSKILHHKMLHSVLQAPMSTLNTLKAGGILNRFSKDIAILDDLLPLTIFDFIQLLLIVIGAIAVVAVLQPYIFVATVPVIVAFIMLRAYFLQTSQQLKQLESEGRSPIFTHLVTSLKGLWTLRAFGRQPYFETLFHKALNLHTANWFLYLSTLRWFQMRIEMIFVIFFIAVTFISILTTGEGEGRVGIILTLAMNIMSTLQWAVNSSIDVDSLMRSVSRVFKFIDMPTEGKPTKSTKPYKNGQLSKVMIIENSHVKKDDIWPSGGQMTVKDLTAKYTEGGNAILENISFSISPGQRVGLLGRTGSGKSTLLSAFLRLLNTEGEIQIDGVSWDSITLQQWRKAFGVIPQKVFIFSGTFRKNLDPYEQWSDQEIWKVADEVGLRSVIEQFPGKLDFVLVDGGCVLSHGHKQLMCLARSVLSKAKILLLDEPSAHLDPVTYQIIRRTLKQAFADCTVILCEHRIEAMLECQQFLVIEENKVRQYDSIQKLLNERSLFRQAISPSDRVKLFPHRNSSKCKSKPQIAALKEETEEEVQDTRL
- experiment-description: Cell Surface Expression-Horse Radish Peroxidase (CSE-HRP) Assay;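 for Maximum % activity (without co-corrector): % of on-plate positive control chromenyl benzoic acid corrector at 2 or 3 µM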
- Format: cell-based
- measurement-setup: without co-corrector; maximum at any tested concentration; read-out: Maximum % activity (without co-corrector)

Completed entries (count: 6):
>>> meas_value("CN(C)c1cccc2c(S(=O)(=O)NC(=O)C3(c4cccc(Cl)c4)CC3)cccc12 [Example III-58]")
"< 50%"
>>> meas_value("O=C(NS(=O)(=O)Cc1ccccc1)C1(c2ccc(Cl)cc2Cl)CC1 [Example III-104]")
"< 50%"
>>> meas_value("Cc1ccc(C)c(C2(C(=O)NS(=O)(=O)c3cccc4[nH]ccc34)CC2)c1 [II-80]")
"> 150%"
>>> meas_value("COc1ccc(C2CCC2)cc1C1(C(=O)NS(=O)(=O)c2cccc3ncccc23)CC1 [Example I-17]")
"> 150%"
>>> meas_value("O=C(NS(=O)(=O)c1ccccc1)C1(c2ccccc2F)CC1 [Example III-30]")
"< 50%"
>>> meas_value("COc1ccc(OC)c(C2(C(=O)NS(=O)(=O)c3cccc4ccccc34)CC2)c1 [Example I-28]")
"> 150%"

So, Cc1ccc(S(=O)(=O)NC(=O)C2(c3ccc(Cl)cc3Cl)CC2)cc1 [Example III-37] ? Its Emax was < 50%

So, CO[C@@H](C)COc1ccc(C)cc1C1(C(=O)NS(=O)(=O)c2cccc3nc(C)ccc23)CC1 [Example I-114] ? Its Emax was > 150%

So, COc1ccc(OC(C)C)cc1C1(C(=O)NS(=O)(=O)c2cccc3ncccc23)CC1 [Example I-14] ? Its Emax was > 150%

So, CCc1ccc(O[C@H](C)COC)c(C2(C(=O)NS(=O)(=O)c3cccc4nc(C)ccc34)CC2)c1 [Example I-112] ? Its Emax was > 150%

So, Cc1ccc(OC2COC2)c(C2(C(=O)NS(=O)(=O)c3cccc4nc(N)ccc34)CC2)c1 [II-90] ? Its Emax was > 150%

So, CCOC(C)(C)c1ccc(OC(F)F)c(C2(C(=O)NS(=O)(=O)c3cccc4nc(C)ccc34)CC2)c1 [II-107] ? Its Emax was > 150%

So, CC(C)c1nc(C(F)(F)F)ccc1C1(C(=O)NS(=O)(=O)c2cccc3ncccc23)CC1 [Example GI-7] ? Its Emax was > 150%

So, Cc1ccc(OC(C)C)c(C2(C(=O)NS(=O)(=O)c3cccc4nc(C)ccc34)CC2)c1 [Example I-78] ? Its Emax was > 150%

----------
- test-target: F508delCFTR (Homo sapiens, UniProt P13569, DEL508-508)
- Construct: expressed in transfected cells; host or cells: CFBE41o- human lung derived epithelial cells (CFBE41o-F508delCFTR-HRP), doxycycline-inducible
- experiment-description: Cell Surface Expression-Horse Radish Peroxidase (CSE-HRP) Assay
- Assay type: cell-based
- measurement-setup: test compound alone, without co-corrector; read-out: EC50 (without co-corrector)
pEC50: −log10 of the molar value.
recorded-endpoint: pEC50

Completed entries (count: 6):
>>> meas_value("O=C(O)c1ccccc1S(=O)(=O)NC(=O)C1(c2ccc(Cl)cc2Cl)CC1")
"< 5.00"
>>> meas_value("COc1cc(C2CCC2)cc(OC)c1C1(C(=O)NS(=O)(=O)c2cccn3nccc23)CC1")
"5.00 to 5.52"
>>> meas_value("CC(C)COc1ncc(N(C)C)cc1C1(C(=O)NS(=O)(=O)c2cccc3ncccc23)CC1")
"> 5.52"
>>> meas_value("COC[C@@H](C)Oc1ccc(C)cc1C1(C(=O)NS(=O)(=O)c2cccc3ncccc23)CC1")
"> 5.52"
>>> meas_value("Cc1ccccc1S(=O)(=O)NC(=O)C1(c2ccc(Cl)cc2)CC1")
"5.00 to 5.52"
>>> meas_value("COc1ccc(C23CC(C2)C3)cc1C1(C(=O)NS(=O)(=O)c2cccc3ncccc23)CC1")
"> 5.52"

So, `COc1ncc(C2CCC2)c(C)c1C1(C(=O)NS(=O)(=O)c2cccc3c2CCCN3)CC1` ? Its pEC50 was 5.00 to 5.52

So, `O=C1Cc2cc(S(=O)(=O)NC(=O)C3(c4cccc(Cl)c4)CC3)ccc2N1` ? Its pEC50 was < 5.00

So, `CCc1ccc(OC(F)F)c(C2(C(=O)NS(=O)(=O)c3cccc4ncccc34)CC2)c1` ? Its pEC50 was > 5.52

So, `COc1ncc(C(F)(F)F)cc1C1(C(=O)NS(=O)(=O)c2cccc3ncc(C)n23)CC1` ? Its pEC50 was 5.00 to 5.52

So, `CC(C)Oc1ncc(Br)cc1C1(C(=O)NS(=O)(=O)c2cccc3ncccc23)CC1` ? Its pEC50 was > 5.52

So, `COc1ccc(C)c(C)c1C1(C(=O)NS(=O)(=O)c2cccc3[nH]ncc23)CC1` ? Its pEC50 was > 5.52

So, `COc1ccc(C2CC2)cc1C1(C(=O)NS(=O)(=O)c2cccc3ccccc23)CC1` ? Its pEC50 was > 5.52

So, `COc1ccc(C)c(C)c1C1(C(=O)NS(=O)(=O)c2cccc3nc(C)ccc23)CC1` ? Its pEC50 was > 5.52
